Entry source: patent US20180030151A1

Biological target: recombinant human TFPI (tissue factor pathway inhibitor) (human, UniProt P10646 29-304)
Assay: cell-based or functional assay
% of Normalized, TF/FVIIa/FX complex assay, Ab 25 nM for assorted binders
Quantity measured: % of Normalized, TF/FVIIa/FX complex assay, Ab 25 nM (%)

• clone 3241 (antibody, V domains shown, scFv on yeast at selection; human IgG4/kappa IgG as purified; also called No. 3241 antibody) VH: EVQLVESGGGLVKPGGSLRLSCAASGFTFSSYAMNWVRQAPGKGLEWVSTITTGGSYTYYADSVEGRFTISRDNAKNSLYLQMNSLRAEDTAVYYCARQDGNFLMDYWGQGTLVTVSS VL: DVVMTQTPLSLPVTLGQPASISCKSSQSLLDIDGKTYLNWLQQRPGQSPKRLIYLVSKLDSGVPDRFTGSGSGTDFTLKISRVEAEDVGVYYCWQGTHFPFTFGQGTKVEIKR = 99.6
• clone A67 (antibody, V domains shown) VH: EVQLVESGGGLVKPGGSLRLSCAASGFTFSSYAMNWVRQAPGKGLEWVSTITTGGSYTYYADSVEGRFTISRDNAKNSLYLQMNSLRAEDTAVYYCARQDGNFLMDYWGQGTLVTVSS VL: DVVMTQTPLSLPVTLGQPASISCKSSQSLLDLDGKTYLNWLQQRPGQSPKRLIYLVSKLDSGVPDRFTGSGSGTDFTLKISRVEAEDVGVYYCWQGTHFPFTFGQGTKVEIKR = 99.2
• clone 3203 (antibody, V domains shown) VH: EVQLVESGGGLVKPGGSLRLSCAASGFTFSSYAMSWVRQAPGKGLEWVSTITTGGSYTYYADSVEGRFTISRDNAKNSLYLQMNSLRAEDTAVYYCARQDGNFLMDYWGQGTLVTVSS VL: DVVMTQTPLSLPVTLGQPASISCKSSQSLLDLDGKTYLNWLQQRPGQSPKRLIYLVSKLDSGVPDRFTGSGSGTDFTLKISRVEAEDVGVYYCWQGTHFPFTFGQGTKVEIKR = 46.3
• clone 1023 (antibody, V domains shown, scFv on yeast at selection; human IgG4/kappa IgG as purified) VH: EVQLVESGGGLVKPGGSLRLSCAASGFTFSSYAMNWVRQAPGKGLEWVGTITTGGSYTYYADSVDGRFTISRDNAKNSLYLQMNSLRAEDTAVYYCARQDGNFLMDYWGQGTLVTVSS VL: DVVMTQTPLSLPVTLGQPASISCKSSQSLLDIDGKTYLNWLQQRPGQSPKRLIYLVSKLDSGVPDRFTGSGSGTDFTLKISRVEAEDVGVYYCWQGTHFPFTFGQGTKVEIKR = 99.8
